tgt: DP9 (Homo sapiens)
Sequence (Q86TI2 whole entry, species assumed): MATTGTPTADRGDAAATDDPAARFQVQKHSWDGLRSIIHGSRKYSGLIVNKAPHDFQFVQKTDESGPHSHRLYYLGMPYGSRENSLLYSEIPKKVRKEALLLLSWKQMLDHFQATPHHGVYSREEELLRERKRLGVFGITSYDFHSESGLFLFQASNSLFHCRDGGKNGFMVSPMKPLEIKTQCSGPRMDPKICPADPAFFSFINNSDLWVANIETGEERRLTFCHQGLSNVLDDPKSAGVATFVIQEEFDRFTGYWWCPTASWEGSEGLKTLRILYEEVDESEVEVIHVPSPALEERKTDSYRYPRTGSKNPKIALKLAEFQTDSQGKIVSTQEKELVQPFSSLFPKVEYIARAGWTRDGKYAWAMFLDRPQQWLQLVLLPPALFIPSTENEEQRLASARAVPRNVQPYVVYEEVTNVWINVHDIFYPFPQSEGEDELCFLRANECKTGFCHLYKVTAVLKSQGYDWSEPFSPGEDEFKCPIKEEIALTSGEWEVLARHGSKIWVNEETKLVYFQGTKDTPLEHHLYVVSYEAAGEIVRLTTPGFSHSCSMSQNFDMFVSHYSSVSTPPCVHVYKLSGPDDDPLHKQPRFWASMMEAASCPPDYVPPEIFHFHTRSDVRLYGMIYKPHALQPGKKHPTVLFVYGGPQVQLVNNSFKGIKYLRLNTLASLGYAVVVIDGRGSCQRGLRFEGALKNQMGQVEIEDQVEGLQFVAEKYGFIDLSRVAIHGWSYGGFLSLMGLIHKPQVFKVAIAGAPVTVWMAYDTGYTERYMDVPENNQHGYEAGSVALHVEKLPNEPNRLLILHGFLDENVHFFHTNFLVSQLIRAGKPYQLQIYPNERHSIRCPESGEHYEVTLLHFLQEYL
procedureSummary: Dipeptidyl peptidase 9 inhibition assay (Example 1 assay with DP9 substituted for DPIV)
Format: biochemical
runConditions: ratio of IC50 values, selectivity for DPIV

| molecule | tgt | DP9/DPIV ratio |
| --- | --- | --- |
| C[C@H](NC(=O)[C@@H](N)CCCN=C(N)N)B(O)O [Arg-boroAla] | DP9 (Homo sapiens) | 2.88 |
| C[C@H](NC(=O)[C@@H](N)CC(=O)O)B(O)O [Asp-boroAla] | DP9 (Homo sapiens) | 6.28 |
| N=C(N)NCCC[C@H](N)C(=O)N1CCC[C@H]1B(O)O [Arg-boroPro] | DP9 (Homo sapiens) | 412 |

###

tgt: DPIV (Homo sapiens)
procedureSummary: DPIV inhibition assay (L-alanyl-L-proline-para-nitroanilide substrate, absorbance at 410 nm)
runConditions: IC50 at pH 2, DPIV; pH 2
pIC50: −log10 of the molar value.

| molecule | pIC50 |
| --- | --- |
| CC1CC[C@@H](B(O)O)N1C(=O)[C@H](C)N (stereo partly shown) | 7.96 |

###

tgt: DPIV (Homo sapiens)
procedureSummary: DPIV inhibition assay (L-alanyl-L-proline-para-nitroanilide substrate, absorbance at 410 nm)
runConditions: read-out: IC50 at pH 8; DPIV; pH 8
pIC50: −log10 of the molar value.

| molecule | pIC50 |
| --- | --- |
| C[C@H](N)C(=O)N1C(CO)CCC1B(O)O (stereo partly drawn) [L-Ala-[5-(HOCH2)-2-boroPro]] | 4.89 |

###

tgt: DPIV (Homo sapiens, UniProt P27487)
Sequence (P27487 whole entry): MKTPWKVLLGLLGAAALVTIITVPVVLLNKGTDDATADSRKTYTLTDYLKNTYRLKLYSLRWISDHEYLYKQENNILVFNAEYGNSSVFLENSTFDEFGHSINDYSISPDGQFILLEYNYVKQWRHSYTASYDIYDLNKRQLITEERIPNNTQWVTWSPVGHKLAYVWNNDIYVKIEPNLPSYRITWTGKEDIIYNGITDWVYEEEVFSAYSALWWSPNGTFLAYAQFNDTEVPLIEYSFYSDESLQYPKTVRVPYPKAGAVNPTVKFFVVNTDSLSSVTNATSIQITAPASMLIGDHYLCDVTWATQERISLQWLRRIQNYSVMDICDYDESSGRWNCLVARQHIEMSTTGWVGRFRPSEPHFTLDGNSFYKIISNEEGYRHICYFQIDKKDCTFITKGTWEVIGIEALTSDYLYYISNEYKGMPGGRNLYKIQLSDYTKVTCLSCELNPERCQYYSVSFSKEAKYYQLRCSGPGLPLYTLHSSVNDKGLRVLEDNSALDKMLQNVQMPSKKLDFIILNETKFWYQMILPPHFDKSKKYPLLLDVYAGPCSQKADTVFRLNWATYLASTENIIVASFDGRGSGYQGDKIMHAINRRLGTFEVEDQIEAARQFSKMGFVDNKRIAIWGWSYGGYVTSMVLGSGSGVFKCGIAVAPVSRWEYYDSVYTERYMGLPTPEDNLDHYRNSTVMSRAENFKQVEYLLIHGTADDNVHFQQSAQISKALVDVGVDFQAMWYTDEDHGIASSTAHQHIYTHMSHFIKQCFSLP
procedureSummary: DPIV inhibition assay (L-alanyl-L-proline-para-nitroanilide substrate, absorbance at 410 nm)
runConditions: DPIV IC50 (nM), Example 6; same pH throughout the assay (pH not stated)

| querySmiles | unitAbbrev | IC50 |
| --- | --- | --- |
| N=C(N)NCCC[C@H](N)C(=O)N1CCC[C@H]1B(O)O | nM | 2 |

###

Reported IC50 is given for each of the following compounds.
tgt: DPIV (Homo sapiens)
procedureSummary: DPIV inhibition assay (L-alanyl-L-proline-para-nitroanilide substrate, absorbance at 410 nm)
runConditions: read-out: DPIV IC50; Example 6; same pH throughout the assay (pH not stated)

| compound | IC50 (nM) |
| --- | --- |
| N[C@@H](CCC(=O)O)C(=O)N1CCC[C@H]1B(O)O [Glu-boroPro] | 3 |
| C[C@H](NC(=O)[C@@H](N)CC(=O)O)B(O)O [Asp-boroAla] | 797000 |
| C[C@H](N)C(=O)N1C(CO)CCC1B(O)O (stereo partly drawn) [L-Ala-[5-(HOCH2)-2-boroPro]] | 40 |
| C[C@H](NC(=O)[C@@H](N)CCCN=C(N)N)B(O)O [Arg-boroAla] | 8 |

###

tgt: DP9 (Homo sapiens)
procedureSummary: Dipeptidyl peptidase 9 inhibition assay (Example 1 assay with DP9 substituted for DPIV)
Format: biochemical
runConditions: Example 6; same pH throughout the assay (pH not stated); read-out: DP9 IC50
pIC50: −log10 of the molar value.
valueType: pIC50

| compound | readoutValue |
| --- | --- |
| C[C@H](N)C(=O)N1C(CO)CCC1B(O)O (stereo partly drawn) [L-Ala-[5-(HOCH2)-2-boroPro]] | 1.55 |
| C[C@H](NC(=O)[C@@H](N)CC(=O)O)B(O)O | 2.30 |
| N=C(N)NCCC[C@H](N)C(=O)N1CCC[C@H]1B(O)O | 6.08 |
| C[C@H](NC(=O)[C@@H](N)CCCN=C(N)N)B(O)O | 7.64 |
